Hello, the source for this data is PubChem BioAssay (NCI), in case you need it.

Hi there, I'd appreciate the recorded TGI for every entry that follows.
Tested on: HT29 colon
Test: NCI tumour cell line growth inhibition, 48 h

COC(=O)C1=C(OC(=O)/C(=C/c2c(F)cccc2F)c2ccccc2)C(C(=O)OC)[C@@]2(O)[C@@H](C(=O)OC)[C@H](C)C[C@@H]1[C@@H]2C(=O)OC (stereo partly specified) = > 100 µM

Please supply TGI for each of the following items, keeping them in order.
1. COC(=O)c1cn(CCCCO)nn1
2. CCCC(=O)Nc1ncnc2c1ncn2C1OC2COP(=O)(O)OC2C1OC(=O)CCC (stereo unspecified)
3. CO[C@]12CCC(=O)N1C=Cc1c2[nH]c2ccccc12
4. CCOC(=O)NN(C(=O)OCC)C(C(=O)c1ccc(Cl)cc1)=C1NCCN1
5. O=c1cc(-c2ccccc2)nc2cc(-c3ccco3)[nH]n12
6. O=C1CCCC(=O)C1C(=O)c1ccc(C(F)(F)F)cc1[N+](=O)[O-]
7. CC1OC(n2cc(I)c(=O)[nH]c2=O)C=CC1=O (stereo unspecified)
8. CCOC(=O)NC(C(C(=O)OCC)C(=O)OCC)(C(F)(F)F)C(F)(F)F

Out:
["> 100 µM", "> 1000 µM", "> 100 µM", "> 100 µM", "> 100 µM", "> 100 µM", "30.6 µM", "> 100 µM"]

---

Tested on: BT-549 breast
Experiment: NCI tumour cell line growth inhibition, 48 h
Hi there, I'd appreciate the recorded TGI for every entry that follows.

ClCCCC1COc2ccccc2O1 (configuration not stated) = > 100 µM
O=C1C(Cl)C(c2cccc(Br)c2)N1c1c(O)c(Cl)cc(Br)c1Cl (configuration not stated) = > 100 µM
Nc1nc(NCC2(CO)CC(CCc3ccccc3)C2)cc(=O)[nH]1 (configuration not stated) = > 100 µM
COc1cc(C(=O)Nc2cc(O)c(C/C=C(\C)CCC=C(C)C)c(O)c2)cc2c1O[C@]1(C)CC[C@@H](O)C(C)(C)[C@H]1C2 = 5.23 µM

Please supply TGI for each of the following items, keeping them in order.
1. Cc1ccc(Nc2cc(=O)[nH]c(=O)[nH]2)cc1CS
2. CCCCC/C=C\C/C=C/CCCCCCCCNC(=O)Nc1ccc([N+](=O)[O-])cc1
3. Nc1ccc(-c2nc3ccccc3s2)cc1F
4. COC(=O)C1=C(OC(=O)/C(=C/c2c(F)cccc2F)c2ccccc2)C(C(=O)OC)[C@@]2(O)[C@@H](C(=O)OC)[C@H](C)C[C@@H]1[C@@H]2C(=O)OC (some centres not stated)

Out:
1: > 100 µM; 2: 65.3 µM; 3: > 100 µM; 4: > 100 µM

---

System: M14 melanoma
Assay: NCI tumour cell line growth inhibition, 48 h
Hi there, I'd appreciate the recorded GI50 for every entry that follows.

# count of solved cases: 4
C[CH2][Sn]([Cl])([CH2]C)[CH2]C = 1.27 µM
CCc1cccc(CC)c1NC(=O)c1ccn2c1CCc1cnc(Nc3ccc(N4CCN(C)CC4)cc3OC)nc1-2 = 1.59 µM
O=C1C(Cl)=C(Nc2cccc(O)c2)C(=O)N1c1ccc(Cl)cc1Cl = 47.6 µM
O=C1C(Cl)=C(Nc2ccccn2)C(=O)c2ccccc21 = 2.07 µM

Now take the following molecule into account.
Reported GI50 of O=C(O)CP(=O)(c1ccccc1)c1ccccc1.O=C(O)CP(=O)(c1ccccc1)c1ccccc1.[Cd] : 17.3 µM
